Reference source: patent US10981932B2

Tested on: SUDHL5
Assay: Induction of cytotoxicity (CellTiter-Glo, 5 h), SUDHL5
Settings: read-out: Cytotox SUDHL5 [M] (median); SUDHL5 cells, cytotoxicity induction, CellTiter-Glo, 5 h incubation, median
Assignment: determine reported IC50 for the given molecules.
Report the value in M with no unit label.

**Q:** State the recorded IC50 for this entry: Cc1c2c(nn1C)CN(C)CCCCn1c(C(=O)O)c(CCCOc3cccc4ccccc34)c3cccc-2c31 (single isomer, unassigned; enantiomer 1) [Example 068]
**A:** 2.25e-06

**Q:** Reported IC50, molecule CN1CCCCn2c(C(=O)O)c(CCCOc3cccc4ccccc34)c3cccc(c32)-c2c(/C=C/F)nn(C)c2C1 (single isomer, unassigned) [Example 226] : ____
**A:** 3.41e-06

**Q:** Which IC50 reading was recorded for the molecule Cc1nn(C)c2c1-c1cccc3c(CCCOc4cccc5c4CCCC5)c(C(=O)O)n(c13)CCCCOC2 (single isomer, unassigned; enantiomer 1) [Example 007] ?
**A:** 3.54e-06

**Q:** What does the record list as IC50 for CCc1c2c(nn1C)CN(C)CCCn1c(C(=O)O)c(CCCOc3cccc4ccccc34)c3ccc(C)c-2c31 (single isomer, unassigned; enantiomer 1) [Example 145] ?
**A:** 1.4e-06

**Q:** Fill in: IC50 of COCC(=O)N1CCN(c2ccc(OCc3nn(C)c4c3-c3cccc5c(CCCOc6cccc7ccccc67)c(C(=O)O)n(c35)CCCCOC4)cc2)CC1 (single isomer, unassigned; enantiomer 2) [Example 1-29] is ___
**A:** 3.29e-06

**Q:** So what does the record say about IC50 for CCOCc1nn(C)c2c1-c1cccc3c(CCCOc4cccc5c4CCCC5)c(C(=O)O)n(c13)CCCCOC2 (single isomer, unassigned; enantiomer 1) [Example 171] ?
**A:** 5.08e-06

---

Target: MCL-1 (Homo sapiens, UniProt Q07820)
Sequence (Q07820 whole entry): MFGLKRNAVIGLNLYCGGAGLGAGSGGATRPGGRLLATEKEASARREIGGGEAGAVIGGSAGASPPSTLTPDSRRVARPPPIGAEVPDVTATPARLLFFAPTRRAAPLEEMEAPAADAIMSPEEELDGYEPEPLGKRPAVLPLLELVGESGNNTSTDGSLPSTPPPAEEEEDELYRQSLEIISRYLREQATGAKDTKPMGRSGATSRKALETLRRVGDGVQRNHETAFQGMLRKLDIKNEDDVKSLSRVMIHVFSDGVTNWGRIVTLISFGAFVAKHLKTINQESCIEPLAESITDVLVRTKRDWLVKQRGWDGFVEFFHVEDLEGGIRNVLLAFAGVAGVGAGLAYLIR
Assay: Protein-protein interaction assay MCL-1/Noxa BH3 peptide (MCL-1 assay), TR-FRET
Format: binding
Conditions: MBP-MCL-1 / Noxa BH3-derived peptide, median
Measurement name: IC50 (nM)
Provide only the numeric value, understood in nM.

**Q:** Could you tell me which IC50 is on file for Cn1nc(CN2CC(F)(F)C2)c2c1COCCCCn1c(C(=O)O)c(CCCOc3cccc4ccccc34)c3cccc-2c31 (single isomer, unassigned; enantiomer 2) [Example 182] ?
**A:** 122

**Q:** Which IC50 value belongs to Cc1c2c(nn1C)COCCCn1c(C(=O)O)c(CCCOc3cccc4ccccc34)c3cccc-2c31 (racemic) [Example 063] ?
**A:** 10.6

**Q:** # lookup: IC50 of Cc1nn(CC(F)(F)F)c2c1-c1cccc3c(CCCOc4cccc5c4CCCC5)c(C(=O)O)n(c13)CCCCOC2 (racemic) [Example 161]
**A:** 52.1

**Q:** # IC50 lookup, item CCc1c2c(nn1C)COCCCCn1c(C(=O)O)c(CCCOc3cccc4ccccc34)c3ccc(C)c-2c31 (single isomer, unassigned; enantiomer 2) [Example 155]
**A:** 48

**Q:** Given the compound Cc1c2c(nn1C)COCCCCn1c(C(=O)O)c(CCCOc3cccc4cc(C(F)(F)F)ccc34)c3cccc-2c31 (single isomer, unassigned; enantiomer 1) [Example 311] , what is its reported IC50?
**A:** 543

**Q:** Entry Cn1nc(CN2CCOCC2)c2c1COCCCn1c(C(=O)O)c(CCCOc3cccc4ccccc34)c3cccc-2c31 (racemic) [Example 138] has what IC50?
**A:** 13.5
